Molecular target: Tyrosine-protein kinase JAK3 (Homo sapiens);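 further: values reported are mean percent inhibition of JAK3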
Sequence (whole entry): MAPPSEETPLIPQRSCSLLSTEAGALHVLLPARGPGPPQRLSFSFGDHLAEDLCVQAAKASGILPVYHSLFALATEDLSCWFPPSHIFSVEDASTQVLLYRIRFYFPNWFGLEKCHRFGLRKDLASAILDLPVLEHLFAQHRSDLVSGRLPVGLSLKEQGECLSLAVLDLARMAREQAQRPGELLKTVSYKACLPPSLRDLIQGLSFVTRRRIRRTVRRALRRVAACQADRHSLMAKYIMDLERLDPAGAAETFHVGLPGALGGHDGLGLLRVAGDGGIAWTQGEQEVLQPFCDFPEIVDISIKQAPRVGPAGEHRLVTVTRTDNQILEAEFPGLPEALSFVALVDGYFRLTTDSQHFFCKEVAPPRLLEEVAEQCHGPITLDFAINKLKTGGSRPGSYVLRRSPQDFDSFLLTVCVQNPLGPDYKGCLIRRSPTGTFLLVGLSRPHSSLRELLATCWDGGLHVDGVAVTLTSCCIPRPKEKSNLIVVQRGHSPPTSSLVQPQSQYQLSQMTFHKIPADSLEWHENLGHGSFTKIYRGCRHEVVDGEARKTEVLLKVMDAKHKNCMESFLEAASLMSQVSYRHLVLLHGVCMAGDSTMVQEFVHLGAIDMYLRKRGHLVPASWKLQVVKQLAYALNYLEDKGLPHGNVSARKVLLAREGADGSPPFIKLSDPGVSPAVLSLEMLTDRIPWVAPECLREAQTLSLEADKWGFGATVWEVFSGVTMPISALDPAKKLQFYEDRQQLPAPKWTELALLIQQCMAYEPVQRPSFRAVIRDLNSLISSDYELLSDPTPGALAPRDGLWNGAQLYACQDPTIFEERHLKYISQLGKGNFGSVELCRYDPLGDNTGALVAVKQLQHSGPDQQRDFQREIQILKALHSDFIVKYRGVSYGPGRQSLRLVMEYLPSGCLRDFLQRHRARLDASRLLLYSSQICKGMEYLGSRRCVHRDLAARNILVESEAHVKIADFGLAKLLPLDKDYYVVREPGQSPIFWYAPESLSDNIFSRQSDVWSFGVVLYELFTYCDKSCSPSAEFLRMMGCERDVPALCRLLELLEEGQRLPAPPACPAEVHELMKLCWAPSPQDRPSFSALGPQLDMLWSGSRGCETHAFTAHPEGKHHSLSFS
Settings: at 0.1 µM
Reported inhibition values are given for each entry in this list.
Please reply with the bare figure in % and do not write the unit itself.

In one line, give reported inhibition of the entry CCCN1CCC(Oc2cc(Nc3nc(Nc4cccc(F)c4C(N)=O)c4cc[nH]c4n3)c(OC)cc2Cl)CC1 .
0.62

In one line, give reported inhibition of the entry O=C1NC(=O)C(c2ccccc2Cl)=C1Nc1cccc(O)c1 .
0.39

In one line, give reported inhibition of the entry CS(=O)(=O)Nc1ccc(N/C=C2\C(=O)Nc3ccccc32)cc1 .
0.43

In one line, give reported inhibition of the entry CS(=O)(=O)CCNCc1ccc(-c2ccc3ncnc(Nc4ccc(OCc5ccccc5)c(Cl)c4)c3c2)o1 .
0.91

In one line, give reported inhibition of the entry CCn1c(-c2nonc2N)nc2cncc(C(=O)N3CC[C@H](N)C3)c21 .
-0.95

* * *

Reported inhibition values are given for each entry in this list.
system: Tyrosine-protein kinase ABL1 (Homo sapiens), P00519 [M351T]; settings: at 0.1 µM
Please reply with the bare figure in % and do not write the unit itself.

Reference set (3 entries):
{"Structure Smiles": "Fc1cccc(COc2ccc(Nc3ncnc4cc(-c5ccc[nH]5)sc34)cc2Cl)c1", "inhibition, %": 0.9}
{"Structure Smiles": "O=C1NC(=O)C(c2ccccc2Cl)=C1Nc1cccc(O)c1", "inhibition, %": -0.23}
{"Structure Smiles": "COc1cc2ncn(-c3cc(O[C@H](C)c4ccccc4Cl)c(C(N)=O)s3)c2cc1OC", "inhibition, %": 9.46}

In one line, give reported inhibition of the entry CCn1c(-c2nonc2N)nc2cncc(C(=O)N3CCNCC3)c21 .
-1.66

In one line, give reported inhibition of the entry N#Cc1c(NC(=O)c2cccc3ccccc23)sc2c1CCCC2 .
3.89
